biological target: human DGKα (Homo sapiens (Human), UniProt P23743); assay: DGKα ADPGLO assay (detergent/lipid micelle substrate); assay type: biochemical; settings: truncated DGK alpha; read-out: DGK alpha ADPGLO (Truncated) IC50
Sequence (P23743 whole entry, looked up, the tested form may be a part): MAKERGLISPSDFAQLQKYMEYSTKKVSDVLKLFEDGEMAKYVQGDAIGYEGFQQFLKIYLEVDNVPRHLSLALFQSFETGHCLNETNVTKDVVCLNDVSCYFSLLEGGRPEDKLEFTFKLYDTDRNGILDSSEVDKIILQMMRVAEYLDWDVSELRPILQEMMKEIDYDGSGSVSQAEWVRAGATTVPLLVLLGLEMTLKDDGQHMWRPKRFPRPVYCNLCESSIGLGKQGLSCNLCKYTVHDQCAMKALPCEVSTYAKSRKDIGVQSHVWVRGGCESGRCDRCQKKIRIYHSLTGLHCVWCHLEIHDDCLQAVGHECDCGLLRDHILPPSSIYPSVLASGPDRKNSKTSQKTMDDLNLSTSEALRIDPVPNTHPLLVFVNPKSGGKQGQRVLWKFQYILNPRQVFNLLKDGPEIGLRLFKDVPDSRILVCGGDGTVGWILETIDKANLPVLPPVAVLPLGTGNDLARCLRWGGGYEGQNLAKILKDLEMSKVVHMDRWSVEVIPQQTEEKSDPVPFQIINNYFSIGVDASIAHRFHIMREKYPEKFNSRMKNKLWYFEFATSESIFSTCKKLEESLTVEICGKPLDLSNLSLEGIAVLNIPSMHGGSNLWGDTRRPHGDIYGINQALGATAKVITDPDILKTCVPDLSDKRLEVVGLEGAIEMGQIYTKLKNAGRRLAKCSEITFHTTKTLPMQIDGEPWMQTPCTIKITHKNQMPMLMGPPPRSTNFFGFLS
READOUT LABEL: pIC50
Please keep in mind that pIC50 is minus log10 of the molar concentration; only the number is needed.

Ask | Need pIC50 of CC[C@H]1CN(C(C)c2ccc(CN3CCC(O)CC3)cc2)[C@H](CC)CN1c1nc(=O)n(C)c2ccc(C#N)nc12 (stereo partly drawn) [Example 286] , thanks.
Reply | 4.44

Ask | Same lookup for CC[C@H]1CN(C(C)c2ccc(CN3CCOC(C)(C)C3)cc2)[C@H](CC)CN1c1nc(=O)n(C)c2ccc(C#N)nc12 (stereo partly drawn) [Example 276] , please.
Reply | 6.92

Ask | Okay, and CC[C@@H]1CN(c2nc(=O)n(C)c3ccc(C#N)nc23)[C@@H](C)CN1C(C)c1ccc(C(F)(F)F)cc1 (single isomer, unassigned) [Example 7] ?
Reply | 6.74
